# credit: PubChem BioAssay AID1851

Target: Cytochrome P450 2C19 (Homo sapiens)
Test: Cytochrome panel assay with activity outcomes
Details: recombinant CYP, pro-luciferin dealkylation, luminescence, p450-cyp2c19; series mostly up to 57.1 µM
Protocol: The P450 gene superfamily is involved in the metabolism and clearance of xenobiotics. This assay used various human CYP P450 isozymes to measure the dealkylation of various pro-luciferin substrates to luciferin. The luciferin is then measured by luminescence after the addition of a luciferase detection reagent. […] Inhibitors and some substrates limit the production of luciferin, and decrease measured luminescence. […] 8, Detection, 1 sec, ViewLux luminescent read […]
Among all 16,000 compounds or so, about 5,800 (36%) were called active. Inconclusive results (about 23%) are left out. Calls follow the shape of the dose curve; as a rule, active = well fitted curve in the direction sought with a large enough effect; inconclusive = small, poorly fitted or top-dose-only effect, or effect the other way; inactive = no such curve, though single readings can be large or run the other way. The list shows a part of the results.
Pick one and only one: active, inactive

{"columns": ["Smiles representation", "Assigned class"],
 "data": [
  ["COc1ccc(CNc2ncnc3ccc(-c4ccccc4C#N)cc23)c(OC)c1", "inactive"],
  ["c1ccc(-c2ccc(N3CC4(CCNCC4)C3)cc2)cc1", "inactive"],
  ["CCc1c(C)nc2ccc(Br)cc2c1Cl", "active"]
]}

Alright, here's another compound for you.
Request: Recorded test call requested for CC=C(/C(=C/C)c1ccc(O)cc1)c1ccc(O)cc1
Response: active
